Where do the numbers come from? From patent US20240327535A1.

# tgt: T1, human BCMA on NCI-H929, OPM2 and Raji cells (human, UniProt Q02223 1-184)
# T1 chain: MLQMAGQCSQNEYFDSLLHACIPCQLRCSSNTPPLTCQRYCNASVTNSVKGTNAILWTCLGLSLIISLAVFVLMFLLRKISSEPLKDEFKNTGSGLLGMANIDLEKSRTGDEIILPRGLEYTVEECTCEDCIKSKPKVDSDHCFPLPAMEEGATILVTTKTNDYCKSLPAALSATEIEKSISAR
# experiment: cell-based or functional assay
Please respond with reported LD50 (nM) OPM2.1, cell viability for every item in the list.
Kindly provide the numeric value in nM only, without the unit symbol.

Query: # get_value(readout='LD50 (nM) OPM2.1, cell viability', item= AB215-ADL1-D2-02 (antibody, human IgG1, kappa, V domains shown, ADL1-D2 linker-payload on cysteine residues of the antibody, DAR 3.96) VH: QVQLVQSGAEVKKPGSSVKVSCKASGGTFTNYWIHWVRQAPGQGLEWMGGTYRSHSTTYYNQKFKSRVTITADKSTSTAYMELSSLRSEDTAVYYCARGAVYHGYDVIDNWGQGTLVTVSS VL: DIQMTQSPSSLSASVGDRVTITCRASQSISSYLNWYQQKPGKAPKLLIYATSNLQIGVPSRFSGSGSGTDFTLTISSLQPEDFATYYCQQYRRIPWTFGQGTKLEIKR )
Result: 73.7

Query: // repeat for AB218-ADL1-D2-02 (antibody, human IgG1, kappa, V domains shown, ADL1-D2 linker-payload on cysteine residues of the antibody, DAR 3.77) VH: QVQLVQSGAEVKKPGSSVKVSCKASGGTFSNYWIHWVRQAPGQGLEWMGATYRSQSTTYYNQKFKSRVTITADKSTSTAYMELSSLRSEDTAVYYCARGAVYHGYDVIDNWGQGTLVTVSS VL: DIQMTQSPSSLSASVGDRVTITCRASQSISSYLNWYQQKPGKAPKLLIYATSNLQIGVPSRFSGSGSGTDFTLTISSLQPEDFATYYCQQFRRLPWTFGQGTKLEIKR and report
Result: 19.8

Query: // repeat for AB216-ADL1-D2-02 (antibody, human IgG1, kappa, V domains shown, ADL1-D2 linker-payload on cysteine residues of the antibody, DAR 3.8) VH: QVQLVQSGAEVKKPGSSVKVSCKASGGTFSNYWIHWVRQAPGQGLEWMGATYRIQSDTYYNQKYKSRVTITADKSTSTAYMELSSLRSEDTAVYYCARGAVYHGYDVIDNWGQGTLVTVSS VL: DIQMTQSPSSLSASVGDRVTITCRASQSISSYINWYQQKPGKAPKLLIYATSNLQIGVPSRFSGSGSGTDFTLTISSLQPEDFATYYCQQYRRLPWSFGQGTKLEIKR and report
Result: 14

Query: // repeat for AB217-ADL1-D2-02 (antibody, human IgG1, kappa, V domains shown, ADL1-D2 linker-payload on cysteine residues of the antibody, DAR 3.7) VH: QVQLVQSGAEVKKPGSSVKVSCKASGGTFTNYWIHWVRQAPGQGLEWMGATYRSHSDTYYAQKYKSRVTITADKSTSTAYMELSSLRSEDTAVYYCARGAVYHGYDVIDNWGQGTLVTVSS VL: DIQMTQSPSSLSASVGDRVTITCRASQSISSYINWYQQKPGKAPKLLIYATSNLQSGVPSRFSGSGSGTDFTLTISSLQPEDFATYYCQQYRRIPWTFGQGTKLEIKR and report
Result: 16.3
